Target: human S1P1 receptor (Homo sapiens, UniProt P21453)
Construct: membranes were used
Sequence (P21453 whole entry): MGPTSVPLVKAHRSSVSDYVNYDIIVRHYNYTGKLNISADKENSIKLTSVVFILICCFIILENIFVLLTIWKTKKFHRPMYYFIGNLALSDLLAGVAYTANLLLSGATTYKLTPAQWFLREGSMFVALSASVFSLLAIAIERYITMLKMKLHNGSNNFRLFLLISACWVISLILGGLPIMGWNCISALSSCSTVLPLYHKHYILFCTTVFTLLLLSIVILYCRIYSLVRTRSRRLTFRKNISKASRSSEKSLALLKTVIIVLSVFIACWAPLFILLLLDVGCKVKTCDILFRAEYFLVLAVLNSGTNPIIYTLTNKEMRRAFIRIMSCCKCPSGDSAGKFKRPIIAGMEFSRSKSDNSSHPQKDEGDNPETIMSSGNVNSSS
Test: GTP γ35S binding assay for S1P1 activity
Conditions: activity potency from GTP γ35S binding; membranes of cells stably expressing the S1P1 receptor; 30 min at 25° C.
property: pEC50
Notebook: values listed as pEC50 are -log10 of the concentration (mol/L).

Example entries and their recorded answers appear below.
Cc1ccc(/C=C(\CCCOc2ccc(CN3CC(C(=O)O)C3)cc2)c2cccc(F)c2F)cc1C [Compound 1] : 6.32
Cc1ccc(/C=C(\CCC[S+]([O-])c2ccc(CN3CC(C(=O)O)C3)cc2)c2cc(F)cc(F)c2)cc1C (stereo not drawn) [Compound 7] : 6.80
Cc1ccc(/C=C(\CCCCSc2ccc(CN3CC(C(=O)O)C3)cc2)c2cc(F)cc(F)c2)cc1C [Compound 4] : 6.19
Cc1ccc(/C=C(\CCCOc2ccc(CN3CC(C(=O)O)C3)cc2)c2cccc(Cl)c2)cc1C [Compound 5] : 7.55
Cc1ccc(/C=C(\CCCOc2ccc(CN3CC(C(=O)O)C3)cc2)c2cc(F)cc(F)c2)cc1C [Compound 6] : 8.38

Item: "Cc1ccc(C=C(CCCOc2ccc(CN3CC(C(=O)O)C3)cc2)c2ccsc2)cc1C" | System: human S1P1 receptor (Homo sapiens, UniProt P21453) | pEC50: 7.44

These measurements were taken from patent US8871755B2.
